# Kd per entry
- subject.of.test: Quadruplex DNA
- method.summary: Binding affinity to G-quadruplex DNA pu22 (unknown origin) by fluorescence spectroscopic analysis
- Assay type: nucleic-acid assay
Report only the number, with the unit nM understood.

Can you share its Kd? I mean this compound: `CCn1c2ccccc2c2cc(/C=C/c3[se]c4ccccc4[n+]3C)ccc21` 400

// same read-out, input: `C[n+]1c(/C=C/c2ccc3c(c2)c2ccccc2n3Cc2ccccc2)[se]c2ccccc21.[I-]` 900

====

Entries annotated with measured IC50 at 48 h
- method.summary: Cytotoxicity against human NCM460 cells assessed as reduction in cell viability incubated for 48 hrs by MTT assay
- Assay type: toxicity, cell-based

• CCn1c2ccccc2c2cc(/C=C/c3[se]c4ccccc4[n+]3C)ccc21 = 29.2 µM
• CCn1c2ccccc2c2cc(/C=C/c3nc4c(ccc5ccccc54)o3)ccc21 = > 100 µM
• CCn1c2ccccc2c2cc(/C=C/c3oc4ccc5ccccc5c4[n+]3C)ccc21 = > 100 µM

For the compound `CN(C)CCCn1c2ccccc2c2cc(/C=C/c3nc4ccccc4o3)ccc21` , what IC50 at 48 h is on record? > 100 µM

# repeat for `CCn1c2ccccc2c2cc(/C=C/c3nc4c(ccc5ccccc54)[se]3)ccc21` > 100 µM

Could you do the same for `C[n+]1c(/C=C/c2ccc3c(c2)c2ccccc2n3Cc2ccccc2)[se]c2ccccc21.[I-]` , please? 77.6 µM

How about `CN(C)CCCn1c2ccccc2c2cc(/C=C/c3[se]c4ccccc4[n+]3C)ccc21` ? 87.7 µM

And what about the compound `C[n+]1c(/C=C/c2ccc3c(c2)c2ccccc2n3Cc2ccccc2)oc2ccccc21` ? > 100 µM

How about this compound: `C(=C\c1nc2ccccc2[se]1)/c1ccc2c(c1)c1ccccc1n2Cc1ccccc1` > 100 µM
